# PARTICULARS: in acetone, 308.15 K

- COMPOUND: "COCCOC(=O)C1=C(C)NC(C)=C(C(=O)OC(C)C)C1c1cccc([N+](=O)[O-])c1 (stereo unspecified)"
  solubility (mole fraction): 0.0241

* * *

# PARTICULARS: in acetone, 283.15 K
QUANTITY: solubility (mole fraction)

- COMPOUND: "COCCOC(=O)C1=C(C)NC(C)=C(C(=O)OC(C)C)C1c1cccc([N+](=O)[O-])c1 (stereo unspecified)"
  MEAS_VALUE: 0.0136

* * *

# PARTICULARS: in ethanol, 288.15 K

- COMPOUND: "COCCOC(=O)C1=C(C)NC(C)=C(C(=O)OC(C)C)C1c1cccc([N+](=O)[O-])c1 (stereo unspecified)"
  solubility (mole fraction): 0.0176
